Task for the reader: assign each of the following molecules its reported pIC50.
- System: GFP-eIF2α in HEK293 cells
- Procedure Details: PERK cellular assay, TR-FRET in HEK293-EGFP-eIF2a cells after tunicamycin-induced ER stress
- Type: cell-based
- Details: HEK293-EGFP-eIF2a cells, tunicamycin 2 hours; read-out: Cellular eIF2α IC50
pIC50: −log10 of the molar value.

Name the reported pIC50 value associated with the molecule Cc1nc(N)c2c(-c3ccc(NC(=O)C(O)c4ccccc4C)cc3Cl)cn(C)c2n1 (stereo not drawn) [Example 93]
5.52 to 5.70

Name the reported pIC50 value associated with the molecule COc1cc(NC(=O)C(O)c2cccc(F)c2)ccc1-c1cn(C)c2nc(C)nc(N)c12 (single isomer, unassigned) [Example 106]
5.70 to 6.00

Name the reported pIC50 value associated with the molecule Cc1cc(F)cc(C(O)C(=O)Nc2ccc(-c3cn(C)c4nc(C)nc(N)c34)c(C)c2)c1 (stereo not drawn) [Example 57]
6.60 to 7.00

Name the reported pIC50 value associated with the molecule Cc1nc(N)c2c(-c3cnc(NC(=O)C(O)c4cccc(F)c4)cc3C)cn(C)c2n1 (stereo not drawn) [Example 134]
6.60 to 7.00

Name the reported pIC50 value associated with the molecule Cc1cc(NC(=O)C(O)c2ccccc2)ccc1-c1cn(C)c2ncnc(N)c12 (stereo not drawn) [Example 5]
7.30 to 7.59

Name the reported pIC50 value associated with the molecule Cc1nc(N)c2c(-c3ccc(NC(=O)C(O)c4cc(F)cc(C(F)(F)F)c4)c(F)c3F)cn(C)c2n1 (single isomer, unassigned) [Example 116]
6.30 to 6.60

Name the reported pIC50 value associated with the molecule Cc1nc(N)c2c(-c3ccc(NC(=O)C(O)c4cccc(F)c4)c(F)c3C)cn(C)c2n1 (stereo not drawn) [Example 12]
7.60 to 9.00

Name the reported pIC50 value associated with the molecule Cc1nc(N)c2c(-c3ccc(NC(=O)C(O)c4cc(F)cc(F)c4)c(F)c3F)cn(C)c2n1 (single isomer, unassigned) [Example 113]
7.60 to 9.00

Name the reported pIC50 value associated with the molecule Cc1nc(N)c2c(-c3ccc(NC(=O)C(O)c4cccc(C(F)(F)F)c4)cc3C)cn(C)c2n1 (stereo not drawn) [Example 49]
7.30 to 7.59

Name the reported pIC50 value associated with the molecule CCc1cc(NC(=O)C(O)c2cccc(F)c2)ccc1-c1cn(C)c2nc(C)nc(N)c12 (stereo not drawn) [Example 68]
7.30 to 7.59

Name the reported pIC50 value associated with the molecule Cn1cc(-c2ccc(NC(=O)C(O)c3cccc(F)c3)cc2F)c2c(N)ncnc21 (single isomer, unassigned) [Example 3]
7.30 to 7.59

Name the reported pIC50 value associated with the molecule Cc1nc(N)c2c(-c3ccc(NC(=O)C(O)c4cccc(C(F)(F)F)c4)cc3Cl)cn(C)c2n1 (stereo not drawn) [Example 102]
6.60 to 7.00

Name the reported pIC50 value associated with the molecule Cc1cc(NC(=O)C(O)c2cccc(F)c2)c(F)cc1-c1cn(C)c2ncnc(N)c12 (stereo not drawn) [Example 119]
7.60 to 9.00

Name the reported pIC50 value associated with the molecule Cc1nc(N)c2c(-c3ccc(NC(=O)C(O)c4cccc(Cl)c4)cc3C)cn(C)c2n1 (stereo not drawn) [Example 36]
7.30 to 7.59

Name the reported pIC50 value associated with the molecule Cc1nc(N)c2c(-c3ccc(NC(=O)C(O)c4cccc(F)c4)cc3F)cn(C)c2n1 (stereo not drawn) [Example 80]
7.30 to 7.59

Entry source: patent US20220356186A1
